Every entry's value here was drawn from ChEMBL document CHEMBL4020732.

For each record, write down the corresponding pIC50.
assay: Antioxidant activity of the compound assessed as DPPH radical scavenging activity after 5 mins by spectrophotometric method; type: functional
Answers are plain numbers, as −log10 of the molar value.

Sample answers from the record:
1. COc1cc(/C=C/C(=O)C(=Cc2ccc(O)c(O)c2)C(=O)/C=C/c2ccc(O)c(OC)c2)ccc1O	4.99
2. CCOc1cc(/C=C/C(=O)C(=Cc2ccc(OC)c(OC)c2)C(=O)/C=C/c2ccc(O)c(OCC)c2)ccc1O	4.27
3. CCOc1cc(C=C(C(=O)/C=C/c2ccc(O)c(OC)c2)C(=O)/C=C/c2ccc(O)c(OC)c2)ccc1O	3.91
4. CCOc1cc(/C=C/C(=O)C(=Cc2ccccc2)C(=O)/C=C/c2ccc(O)c(OCC)c2)ccc1O	4.04
5. CCOc1ccc(C=C(C(=O)/C=C/c2ccc(O)c(OC)c2)C(=O)/C=C/c2ccc(O)c(OC)c2)cc1OCC	4.14
6. COc1cc(/C=C/C(=O)C(=Cc2ccc(OC)c(OC)c2)C(=O)/C=C/c2ccc(O)c(OC)c2)ccc1O	4.15

For every item in the list below, what is its measured pIC50?
1. CCOc1cc(C=C(C(=O)/C=C/c2ccc(O)c(OCC)c2)C(=O)/C=C/c2ccc(O)c(OCC)c2)ccc1O
2. CCOc1cc(/C=C/C(=O)C(=Cc2ccc(O)c(O)c2)C(=O)/C=C/c2ccc(O)c(OCC)c2)ccc1O

[A]
1: 4.01; 2: 4.60
